Cited source: patent EP4768499A1

Run Description: Metabolic stability test: liver microsomal stability assay
Type: in vitro ADME, mouse
Experimental Setup: mouse liver microsomes 0.5 mg protein/mL, compound 1 µM, absence of NADPH
Non-standard residues stand in square brackets, D forms with d. Residues, ends and D or L forms follow the SMILES beside them. *: point of attachment. NMeF = CN[C@@H](Cc1ccccc1)C(=O)O; NMeL = CN[C@@H](CC(C)C)C(=O)O; NMeV = CN[C@H](C(=O)O)C(C)C; d(β3hA) = C[C@@H](N)CC(=O)O; NMeAbu = CC[C@H](NC)C(=O)O; NMeA = CN[C@@H](C)C(=O)O; Sar = CNCC(=O)O; tBu = CC(C)(C)*
Assay Metric: Mouse Hepatic Microsome CLh,int NADPH(-) (µL/min/mg Protein)
Please respond with the number in µL/min/mg Protein and leave the unit unwritten.

Query string: Please give the documented Mouse Hepatic Microsome CLh,int NADPH(-) of CC[C@H]1C(=O)N(C)[C@@H](C)C(=O)N(C)[C@@H](C(C)C)C(=O)N[C@H](C)CC(=O)N[C@H](C(C)C)C(=O)N(C)[C@@H](CC(C)C)C(=O)N[C@@H](CC(C)C)C(=O)N(C)[C@@H](C(C)C)C(=O)N(C)[C@@H](CC(C)C)C(=O)N(C)CC(=O)N[C@@H]([C@@H](C)O)C(=O)N(C)[C@@H](Cc2ccccc2)C(=O)N[C@@H](COC(C)(C)C)C(=O)N1C [pd131] (cyclo(L[NMeV][NMeL][Sar]T[NMeF]S(tBu)[NMeAbu][NMeA][NMeV][d(β3hA)][dV][NMeL]))
Result string: 13.5
